Molecular target: UniProt P34972
Test: Membrane competition binding assay with [3H]-CP 55,940, CHO-CB2 membranes
Details: CHO-CB2 cellular membranes, 2.5 nM [3H]-CP 55,940
pKi: −log10 of the molar value.
MEASURED_ENDPOINT: pKi

CCCCCCC(C)(C)c1cc(OC)c(C2=C[C@@H]3CC[C@@]2(C)C3(C)C)c(OC)c1    < 4.30
CCCCCCC(C)(C)c1cc(OC)c(C2=C[C@]3(C)CC[C@H]2C3(C)C)c(OC)c1    < 4.30

Prompt: Read the entry CCCCCCC(C)(C)c1cc(OC)c(C2=C[C@@]3(C)CC[C@@H]2C3(C)C)c(OC)c1 and write its reported pKi.
Completion: < 4.30
